Assay: Cytotoxicity in Artemia cysts assessed as mortality of nauplii at 30 ug/mL after 24 hrs relative to control
Format: organism-based
Details: in vivo
For each record, write down the corresponding mortality at 24 h, 30 ug/mL.

# mortality at 24 h, 30 ug/mL lookup, item C=CCn1c(=O)c(C2C(C(=O)OC(C)C)=C(N)N(NC(=O)c3ccncc3)C3=C2C(=O)CC(C)(C)C3)cc2cc(C)ccc21 (stereo unspecified)
40%

Find the recorded mortality at 24 h, 30 ug/mL belonging to C=CCn1c(=O)c(C2C(C(=O)OC(C)C)=C(N)N(NC(=O)c3ccncc3)C3=C2C(=O)CC(C)(C)C3)cc2cc(Cl)ccc21 (stereo unspecified) and report it.
50%

// query mortality at 24 h, 30 ug/mL value for entry C=CCn1c(=O)c(C2C(C(=O)OCC)=C(N)N(NC(=O)c3ccncc3)C3=C2C(=O)CC(C)(C)C3)cc2cc(C)ccc21 (stereo unspecified)
40%

Return reported mortality at 24 h, 30 ug/mL; argument: C=CCn1c(=O)c(C2C(C(=O)OC)=C(N)N(NC(=O)c3ccncc3)C3=C2C(=O)CCC3)cc2cc(OC)ccc21 (stereo unspecified)
60%

Report mortality at 24 h, 30 ug/mL for C=CCn1c(=O)c(C2C(C(=O)OC)=C(N)N(NC(=O)c3ccncc3)C3=C2C(=O)CC(C)(C)C3)cc2cc(C)ccc21 (stereo unspecified) please.
40%

Data request, read-out mortality at 24 h, 30 ug/mL, for C=CCn1c(=O)c(C2C(C(=O)OCC)=C(N)N(NC(=O)c3ccncc3)C3=C2C(=O)CC(C)(C)C3)cc2cc(OC)ccc21 (stereo unspecified)
50%

###

Experiment: Cytotoxicity in Artemia cysts assessed as mortality of nauplii at 10 ug/mL after 24 hrs relative to control
Format: organism-based
Settings: in vivo
experimental_endpoint: mortality at 24 h, 10 ug/mL (%)
Number only, in %; omit the unit.

mortality at 24 h, 10 ug/mL for C=CCn1c(=O)c(C2C(C(=O)OC(C)C)=C(N)N(NC(=O)c3ccncc3)C3=C2C(=O)CC(C)(C)C3)cc2cc(Cl)ccc21 (stereo unspecified) ?
10

Item under review: C=CCn1c(=O)c(C2C(C(=O)OC(C)C)=C(N)N(NC(=O)c3ccncc3)C3=C2C(=O)CC(C)(C)C3)cc2cc(C)ccc21 (stereo unspecified) . Reported mortality at 24 h, 10 ug/mL?
10

What does the record list as mortality at 24 h, 10 ug/mL for C=CCn1c(=O)c(C2C(C(=O)OC)=C(N)N(NC(=O)c3ccncc3)C3=C2C(=O)CCC3)cc2cc(OC)ccc21 (stereo unspecified) ?
20

Could you share which mortality at 24 h, 10 ug/mL value was measured for C=CCn1c(=O)c(C2C(C(=O)OCC)=C(N)N(NC(=O)c3ccncc3)C3=C2C(=O)CC(C)(C)C3)cc2cc(OC)ccc21 (stereo unspecified) ?
20

Sample C=CCn1c(=O)c(C2C(C(=O)OC)=C(N)N(NC(=O)c3ccncc3)C3=C2C(=O)CC(C)(C)C3)cc2cc(C)ccc21 (stereo unspecified) — what was its mortality at 24 h, 10 ug/mL?
10

What does the record list as mortality at 24 h, 10 ug/mL for C=CCn1c(=O)c(C2C(C(=O)OCC)=C(N)N(NC(=O)c3ccncc3)C3=C2C(=O)CC(C)(C)C3)cc2cc(C)ccc21 (stereo unspecified) ?
20

###

Assay: Cytotoxicity in Artemia cysts assessed as mortality of nauplii after 24 hrs
Assay type: organism-based
Settings: in vivo
I'd be grateful if you could share measured LC50 at 24 h for these entries.
API: value field is a number in µg/mL; no unit string.

Need LC50 at 24 h of C=CCn1c(=O)c(C2C(C(=O)OC)=C(N)N(NC(=O)c3ccncc3)C3=C2C(=O)CC(C)(C)C3)cc2cc(C)ccc21 (stereo not drawn) , thanks.
34.6

Query: LC50 at 24 h; subject: COc1cc([C@@H]2c3cc4c(cc3[C@@H](O[C@@H]3O[C@@H]5CO[C@@H](C)O[C@H]5[C@H](O)[C@H]3O)[C@H]3COC(=O)[C@H]23)OCO4)cc(OC)c1O [ETOPOSIDE]
7.46

Sample C=CCn1c(=O)c(C2C(C(=O)OCC)=C(N)N(NC(=O)c3ccncc3)C3=C2C(=O)CC(C)(C)C3)cc2cc(OC)ccc21 (stereo not drawn) — what was its LC50 at 24 h?
26.6

###

Assay: Cytotoxicity in Artemia cysts assessed as mortality of nauplii after 24 hrs
Type: organism-based
Details: in vivo
For each record, write down the corresponding LC50 at 24 h.
Only the number, expressed in µg/mL, is required.

Please look up its LC50 at 24 h: C=CCn1c(=O)c(C2C(C(=O)OCC)=C(N)N(NC(=O)c3ccncc3)C3=C2C(=O)CC(C)(C)C3)cc2cc(C)ccc21 (centres undefined)
28.6

Request the reported LC50 at 24 h associated with C=CCn1c(=O)c(C2C(C(=O)OC(C)C)=C(N)N(NC(=O)c3ccncc3)C3=C2C(=O)CC(C)(C)C3)cc2cc(C)ccc21 (centres undefined)
35.4

Can you share its LC50 at 24 h? I mean this molecule: C=CCn1c(=O)c(C2C(C(=O)OC)=C(N)N(NC(=O)c3ccncc3)C3=C2C(=O)CCC3)cc2cc(OC)ccc21 (centres undefined)
19.7

# lookup: LC50 at 24 h of C=CCn1c(=O)c(C2C(C(=O)OC(C)C)=C(N)N(NC(=O)c3ccncc3)C3=C2C(=O)CC(C)(C)C3)cc2cc(Cl)ccc21 (centres undefined)
24.5

###

Field: MIC. Provide a value for each of the compounds that follow.
System: Bacillus subtilis
Test: Antibacterial activity against Bacillus subtilis MTCC 441 assessed as growth inhibition by broth microdilution method
Format: functional
Form entry: value (µg/mL) — number only.

MIC for C=CCn1c(=O)c(C2C(C(=O)OC)=C(N)N(NC(=O)c3ccncc3)C3=C2C(=O)CCC3)cc2cc(Cl)ccc21 (configuration not stated) ?
500

Requested field: MIC. Item: C=CCn1c(=O)c(C2C(C(=O)OC(C)C)=C(N)N(NC(=O)c3ccncc3)C3=C2C(=O)CCC3)cc2ccccc21 (configuration not stated)
250

Please give the measured MIC for this compound: C=CCn1c(=O)c(C2C(C(=O)OC(C)C)=C(N)N(NC(=O)c3ccncc3)C3=C2C(=O)CC(C)(C)C3)cc2cc(C)ccc21 (configuration not stated)
500

Any idea what MIC was measured for C=CCn1c(=O)c(C2C(C(=O)OCC)=C(N)N(NC(=O)c3ccncc3)C3=C2C(=O)CC(C)(C)C3)cc2cc(OC)ccc21 (configuration not stated) ?
125

For the compound C=CCn1c(=O)c(C2C(C(=O)OCC)=C(N)N(NC(=O)c3ccncc3)C3=C2C(=O)CCC3)cc2ccccc21 (configuration not stated) , what MIC is on record?
500

Endpoint output: MIC of C=CCn1c(=O)c(C2C(C(=O)OC)=C(N)N(NC(=O)c3ccncc3)C3=C2C(=O)CC(C)(C)C3)cc2cc(C)ccc21 (configuration not stated) . Value?
200

What does the data say about its MIC? Entry: C=CCn1c(=O)c(C2C(C(=O)OC(C)C)=C(N)N(NC(=O)c3ccncc3)C3=C2C(=O)CC(C)(C)C3)cc2ccccc21 (configuration not stated)
500

// query MIC value for entry CC1(C)S[C@@H]2[C@H](NC(=O)[C@H](N)c3ccccc3)C(=O)N2[C@H]1C(=O)O [AMPICILLIN]
250

Quick one: MIC for O=C(N[C@H](CO)[C@H](O)c1ccc([N+](=O)[O-])cc1)C(Cl)Cl [CHLORAMPHENICOL] ?
50

Which MIC value belongs to C=CCn1c(=O)c(C2C(C(=O)OCC)=C(N)N(NC(=O)c3ccncc3)C3=C2C(=O)CCC3)cc2cc(C)ccc21 (configuration not stated) ?
250

Look up MIC for this compound: C=CCn1c(=O)c(C2C(C(=O)OC(C)C)=C(N)N(NC(=O)c3ccncc3)C3=C2C(=O)CCC3)cc2cc(OC)ccc21 (configuration not stated)
250

Which MIC is listed for C=CCn1c(=O)c(C2C(C(=O)OCC)=C(N)N(NC(=O)c3ccncc3)C3=C2C(=O)CCC3)cc2cc(OC)ccc21 (configuration not stated) ?
200

Recorded MIC for C=CCn1c(=O)c(C2C(C(=O)OCC)=C(N)N(NC(=O)c3ccncc3)C3=C2C(=O)CC(C)(C)C3)cc2cc(Cl)ccc21 (configuration not stated) , please?
200

Any idea what its MIC is? The compound is C=CCn1c(=O)c(C2C(C(=O)OC(C)C)=C(N)N(NC(=O)c3ccncc3)C3=C2C(=O)CC(C)(C)C3)cc2cc(OC)ccc21 (configuration not stated)
250

Which MIC value belongs to C=CCn1c(=O)c(C2C(C(=O)OC)=C(N)N(NC(=O)c3ccncc3)C3=C2C(=O)CC(C)(C)C3)cc2cc(OC)ccc21 (configuration not stated) ?
250

Fill in the blank: the reported MIC of C=CCn1c(=O)c(C2C(C(=O)OC)=C(N)N(NC(=O)c3ccncc3)C3=C2C(=O)CCC3)cc2cc(OC)ccc21 (configuration not stated) is ____.
50

Need MIC, item C=CCn1c(=O)c(C2C(C(=O)OC)=C(N)N(NC(=O)c3ccncc3)C3=C2C(=O)CCC3)cc2ccccc21 (configuration not stated)
100

Look up MIC for this compound: C=CCn1c(=O)c(C2C(C(=O)OC)=C(N)N(NC(=O)c3ccncc3)C3=C2C(=O)CC(C)(C)C3)cc2ccccc21 (configuration not stated)
125

Please report the recorded MIC for C=CCn1c(=O)c(C2C(C(=O)OC(C)C)=C(N)N(NC(=O)c3ccncc3)C3=C2C(=O)CCC3)cc2cc(C)ccc21 (configuration not stated) .
500

Given the entry CCn1cc(C(=O)O)c(=O)c2cc(F)c(N3CCNCC3)cc21 [NORFLOXACIN] , report its measured MIC.
100

Given the compound C=CCn1c(=O)c(C2C(C(=O)OC(C)C)=C(N)N(NC(=O)c3ccncc3)C3=C2C(=O)CC(C)(C)C3)cc2cc(Cl)ccc21 (configuration not stated) , what is its reported MIC?
500

Tell me the measured MIC of C=CCn1c(=O)c(C2C(C(=O)OC(C)C)=C(N)N(NC(=O)c3ccncc3)C3=C2C(=O)CCC3)cc2cc(Cl)ccc21 (configuration not stated) , please.
200

Reported MIC for C=CCn1c(=O)c(C2C(C(=O)OC)=C(N)N(NC(=O)c3ccncc3)C3=C2C(=O)CCC3)cc2cc(C)ccc21 (configuration not stated) : what is it?
62.5

Form field: reported MIC of C=CCn1c(=O)c(C2C(C(=O)OCC)=C(N)N(NC(=O)c3ccncc3)C3=C2C(=O)CCC3)cc2cc(Cl)ccc21 (configuration not stated)
250

Would you kindly share the measured MIC for C=CCn1c(=O)c(C2C(C(=O)OCC)=C(N)N(NC(=O)c3ccncc3)C3=C2C(=O)CC(C)(C)C3)cc2ccccc21 (configuration not stated) ?
500

Value lookup for MIC; key = C=CCn1c(=O)c(C2C(C(=O)OCC)=C(N)N(NC(=O)c3ccncc3)C3=C2C(=O)CC(C)(C)C3)cc2cc(C)ccc21 (configuration not stated)
500

Look at this compound and give its reported MIC. C=CCn1c(=O)c(C2C(C(=O)OC)=C(N)N(NC(=O)c3ccncc3)C3=C2C(=O)CC(C)(C)C3)cc2cc(Cl)ccc21 (configuration not stated)
500
